tested on: senescent HEPG2 cells; assay: Senescence assay: viability of senescent HEPG2 cells; assay type: cell-based; settings: Homo sapiens, 24-72 hours incubation, viability by CellTiter-Glo or XTT, read-out: Absolute IC50 average HEPG2_SEN IC50
pIC50: −log10 of the molar value.

smiles-notation: C#CC(F)(F)[C@]1(O)CC[C@H]2[C@@H]3CCC4=C/C(=N\O[C@H]5C[C@H](O)[C@H](O)[C@H](C)O5)CCC4=C3[C@H](c3ccc(C4CC4)cc3)C[C@@]21C
pIC50: 8.00 to 10.00

smiles-notation: C#CC(F)(F)[C@]1(O)CC[C@H]2[C@@H]3CCC4=C/C(=N\OCCOCCOCCOC)CCC4=C3[C@@H](c3ccc(C4CC4)cc3)C[C@@]21C
pIC50: 8.00 to 10.00

smiles-notation: C#CC(F)(F)[C@]1(O)CC[C@H]2[C@@H]3CCC4=C/C(=N/OCCN5CCN(C)CC5)CCC4=C3[C@@H](c3ccc(C4CC4)cc3)C[C@@]21C
pIC50: 7.00 to 8.00

smiles-notation: C#CC(F)(F)[C@]1(O)CC[C@H]2[C@@H]3CCC4=C/C(=N/NC(=O)CO)CCC4=C3[C@H](c3ccc(C4CC4)cc3)C[C@@]21C
pIC50: 8.00 to 10.00

smiles-notation: C#CC(F)(F)[C@]1(O)CC[C@H]2[C@@H]3CCC4=C/C(=N/NC(=O)NC)CCC4=C3[C@H](c3ccc(C4CC4)cc3)C[C@@]21C
pIC50: 8.00 to 10.00

smiles-notation: C#CC(F)(F)[C@]1(O)CC[C@H]2[C@@H]3CCC4=C/C(=N/NC(N)=O)CCC4=C3[C@H](c3ccc(C4CC4)cc3)C[C@@]21C
pIC50: 8.00 to 10.00

smiles-notation: C#CC(F)(F)[C@]1(O)CC[C@H]2[C@@H]3CCC4=C/C(=N/NC(=O)CCOCCOCCOC)CCC4=C3[C@H](c3ccc(C4CC4)cc3)C[C@@]21C
pIC50: 8.00 to 10.00

smiles-notation: C#CC(F)(F)[C@]1(O)CC[C@H]2[C@@H]3CCC4=C/C(=N/NC(=O)O[C@@H]5O[C@H](COC(C)=O)[C@H](OC(C)=O)[C@H](OC(C)=O)[C@H]5OC(C)=O)CCC4=C3[C@H](c3ccc(C4CC4)cc3)C[C@@]21C
pIC50: 7.00 to 8.00

smiles-notation: C#CC(F)(F)[C@]1(O)CC[C@H]2[C@@H]3CCC4=C/C(=N/OCCOC)CCC4=C3[C@@H](c3ccc(C4CC4)cc3)C[C@@]21C
pIC50: 7.00 to 8.00

smiles-notation: C#CC(F)(F)[C@]1(O)CC[C@H]2[C@@H]3CCC4=C/C(=N/N)CCC4=C3[C@H](c3ccc(C4CC4)cc3)C[C@@]21C
pIC50: 7.00 to 8.00
